Biological target: NAD-dependent protein deacetylase sirtuin-2 (Homo sapiens)
Sequence (Q8IXJ6 whole entry, the tested form may be a part): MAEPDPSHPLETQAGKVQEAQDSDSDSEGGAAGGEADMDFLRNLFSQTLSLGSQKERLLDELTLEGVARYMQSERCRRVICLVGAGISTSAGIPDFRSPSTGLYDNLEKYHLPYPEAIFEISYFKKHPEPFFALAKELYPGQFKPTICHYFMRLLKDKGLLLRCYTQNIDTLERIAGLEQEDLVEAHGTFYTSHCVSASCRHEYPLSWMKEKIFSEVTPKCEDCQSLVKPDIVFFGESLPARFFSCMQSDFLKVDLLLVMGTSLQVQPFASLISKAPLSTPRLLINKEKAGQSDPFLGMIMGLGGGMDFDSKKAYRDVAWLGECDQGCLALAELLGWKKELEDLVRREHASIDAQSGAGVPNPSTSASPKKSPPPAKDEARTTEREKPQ
Assay: Inhibition of deacetylation activity of recombinant human N-terminal His6-tagged SIRT2 (2 to 389 residues) expressed in Escherichia coli using H2N-HK-[Nepsilon-acetyl-lysine]-LM-COOH as substrate measured after 12 mins by HPLC analysis
Form field: IC50 (one value per entry).
measured quantity: IC50 (µM)

1. CCCCCCCCCCCCNC(=O)CCCCC[C@@H]1NC(=O)[C@H](CCCNC(=N)N)NC(=O)CNC(=O)CCC(=O)NCC(=O)NCCCC[C@@H](C(N)=O)NC1=O: 0.55
2. CCCCCCCCCCCCNC(=S)NCCCC[C@@H]1NC(=O)[C@H](CCCNC(=N)N)NC(=O)CNC(=O)CCC(=O)NCC(=O)NCCCC[C@@H](C(N)=O)NC1=O: 10.3
